System: MALME-3M melanoma
test protocol: NCI-60 one-dose screen, 48 h
conditions: 10 µM
This is part of a sample that, as a whole, favours compounds with a hit. Of some 83,000 tested, about 20% had one in any assay. Calls of active or inactive are those of the source. The calls were made as follows: active = growth percent below 10; inactive = the rest.
Return exactly one item of label 1 = active, label 0 = inactive

Observe how each entry below is paired with its result.
In [3]: df
Out[3]:
                                   compound  category_label
0  CC(C)=CCc1cc(O)cc2c1OC(C=C(C)C)C1=C2C(=O)C2=C(NCCS2(=O)=O)C1=O (stereo unspecified)         label 1
1  O=C1NC(=O)N(Cc2ccccc2)CC1Br (stereo unspecified)         label 0
2                 C(CCCC1=NCCO1)CCCC1=NCCO1         label 0
3  O=[N+]([O-])c1ccc(N/N=C/c2cccc3ccccc23)nc1         label 0
4  C#Cc1ccc(-n2c(/C=C/c3cc(OC)cc(OC)c3)nc3ncccc3c2=O)cc1         label 0
5  CS(=O)(=O)Nc1cccc(-c2cc(-c3ccccc3Cl)c(C#N)c(N)n2)c1         label 0
6  CO/N=C(/C(=O)NC1C(=O)N2C(C(=O)O)=C(COC(N)=O)CSC12)c1ccco1 (stereo unspecified)         label 0
7  Clc1ccc2c(NCCCNc3nccc(Nc4ccc(Br)cc4)n3)ccnc2c1         label 1

Note: attention shifts to another entry.
Query block: Just curious, what result did COc1cc(-c2cc(/C=C/C(=O)c3ccc4c(c3)OCO4)[nH]n2)cc(OC)c1OC get here?
Result block: label 0

###

growth values for the compounds below.
Tested on: PC-3 prostate
test protocol: NCI-60 one-dose screen, 48 h (100 = growth as untreated, 0 = no growth, -100 = all killed)
conditions: 10 µM
Compounds without any hit were thinned out: in the full panel of roughly 83,000, 20% have a hit.
// units = %; emit number, no label

Worked cases, growth given:
>>> print(df.to_string())
                                   compound  unit_annotation  reported_result
0         NC1=NC(=O)C(c2ccccc2)(c2ccccc2)S1                %              103
1  CCCCCCN(CCCCCC)CC(O)c1ccc2c3c(cccc13)CC2 (stereo not given)                %             51.5

Query block: State recorded growth with PC-3 prostate, entry COc1cc(Nc2ncnc(Nc3ccc4c(n3)NC(=O)C(C)(C)O4)n2)cc(OC)c1OC , no comment.
Result block: 25.5

Query block: Find the measured growth of COc1ccc(/C(=C2/O[C@@H]([C@H]3COC(C)(C)O3)[C@H]3OC(C)(C)O[C@@H]23)c2cc(OC)c(OC)c(OC)c2)cc1O with PC-3 prostate as test system.
Result block: 29.4

Query block: Under PC-3 prostate, report growth for COc1ccc2c(c1)sc1nc(-c3ccccc3)c(-c3ccsc3)n12
Result block: 16.6

###

System: RPMI-8226 leukemia
test protocol: NCI-60 one-dose screen, 48 h (100 = growth as untreated, 0 = no growth, -100 = all killed)
conditions: 10 µM
Compounds without any hit were thinned out: in the full panel of roughly 83,000, 20% have a hit.
molecules and their reported growth
Express the result in % but write the number alone.

In [3]: df
Out[3]:
                                   molecule  measured_metric  unit_annotation  reported_result
0       c1ccc(CNc2ncnc3scc(-c4cccs4)c23)nc1           growth                %             40.9
1          CCN(CC)CCNC(=O)c1ccc(NC(C)=O)cc1           growth                %              112
2  CCCCC(CCCCCC(CCCC)NCc1ccc2c(c1)OCO2)NCc1ccc2c(c1)OCO2 (configuration not stated)           growth                %            -59.2
3  C#Cc1ccc(-n2c(/C=C/c3ccc(C(F)(F)F)cc3)nc3ncccc3c2=O)cc1           growth                %            -9.89
4  CCCCCCCCCCCCCCCCCCOCC(COCCOCC[N+]1(CCCCCC(=O)[O-])CCCC1)Oc1ncccn1 (configuration not stated)           growth                %             2.22

Query block: Report measured growth; entry is COc1ccc2c(c1)C(=O)c1c-2c(OCCN2CCCCC2)nc2ccc(OC)cc12
Result block: 16.4

Query block: Read the entry COc1ccc2c(c1)nc(N)c1c3cccnc3cn21 and write its reported growth.
Result block: 34.3

Query block: Give reported growth value for CN(C)CCN=c1nc2c(c(N)n1-c1ccccc1)c(=S)n(-c1ccccc1)c(=S)n2-c1ccccc1
Result block: -4.61

Query block: Determine its reported growth: O=C(C[n+]1ccccc1)c1ccc2ccccc2c1
Result block: 93.4

###

Test system: MCF7 breast
test protocol: NCI-60 one-dose screen, 48 h (100 = growth as untreated, 0 = no growth, -100 = all killed)
conditions: 10 µM
This is part of a sample that, as a whole, favours compounds with a hit. Of some 83,000 tested, about 20% had one in any assay. Calls of active or inactive are those of the source. How the source made its calls: active means growth percent below 10; inactive means the rest.
Listed here: items and their measured growth.

                                   molecule  target_desc  measured_metric   reported_result
0  CC1(C)OC2=C(CC1Br)C(=O)C(=O)c1ccccc12 (stereo unspecified)  MCF7 breast           growth   -66.3% (active)
1         Cc1cc(=O)[nH]c(N/N=C/c2ccccc2O)n1  MCF7 breast           growth    4.95% (active)
2  O=C(N/N=C\c1cc(Cl)ccc1[N+](=O)[O-])c1ccco1  MCF7 breast           growth    57% (inactive)
3  COc1cc(OC)cc(-c2cncn2-c2ccc(-c3nc4cc(OC)cc(OC)c4s3)cc2)c1  MCF7 breast           growth  20.9% (inactive)
4  CN1c2ccccc2[C@]2(Cc3ccccc3)Cc3ccccc3N[C@H]12  MCF7 breast           growth  94.1% (inactive)
5          COc1ccc(/C=C/C(C)=N/OCC(=O)O)cc1  MCF7 breast           growth   100% (inactive)

Query block: // Input: COc1cc(-c2cc(/C=C/C(=O)c3ccc4c(c3)OCO4)[nH]n2)cc(OC)c1OC . Output its growth only.
Result block: 17.3% (inactive)

Query block: Give reported growth value for COc1ccc(N2C(=O)C3c4[nH]c5ccc(OCc6ccccc6)cc5c4C4CCC(C(C)C)CC4C3C2=O)cc1 (stereo unspecified)
Result block: 95.2% (inactive)

Query block: Quickly give me recorded growth for O=C1Nc2ccccc2C1=NC1CCCCC1
Result block: 98% (inactive)

Query block: Write down growth measured for item COc1ccc(-c2ccc(-c3ccc(C(=N)N)cn3)o2)cc1
Result block: 47.3% (inactive)

Query block: Please indicate growth recorded for CCN1CCN(c2nc3ccccc3c3c(=O)c4ccccc4sc23)CC1
Result block: 28.3% (inactive)

###

Tested on: MDA-MB-231 breast
test protocol: NCI-60 one-dose screen, 48 h
conditions: 10 µM
Experimental: Cells are grown in 96 well plates and exposed to the test compound for 48 hours. Compounds are tested at a single concentration, which is 10^-5 M for most compounds. The reported endpoint is percent growth (GI% or GIPRCNT), where numbers from 0 - 100% represent growth inhibition, and numbers from -100% - 0 represent cell death. For example, a value of 40 represents 60% growth inhibition. A value of 0 means no net growth occurred over the course of the experiment. […]
About 83,000 compounds went through this panel and 20% of them were active in at least one assay; those are over-represented in the sample as a whole. Active and inactive are the calls of the source. Rule for the calls: active = growth percent below 10; inactive = the rest.
Hello, when you answer, please use one of the following outcomes: True for active, False for inactive

These recorded examples may help you get a feel for the data.
                                   molecule        target_desc  category_label
0           O=C1N=NC2=C1c1c3ccccc3c(O)n1CC2  MDA-MB-231 breast           False
1  Nc1ncn([C@@H]2O[C@H](CO)[C@@H](O)[C@H]2O)c(=O)n1  MDA-MB-231 breast            True
2  COc1cc([C@@H]2c3cc4c(cc3C(Br)[C@H]3COC(=O)[C@H]23)OCO4)cc(OC)c1OC (some centres undefined)  MDA-MB-231 breast            True
3  COc1ccc(-c2nn(-c3cccc(NC(=O)Nc4ccccc4)c3)cc2-c2ccncc2)cc1Cl  MDA-MB-231 breast            True

Query block: # outcome recorded in this test, key = COc1ccc(/C=C2/CN(C(=O)c3ccc(C)cc3)C/C(=C\c3ccc(OC)cc3)C2=O)cc1
Result block: False

Query block: Which result was noted for this molecule in the test: Nc1c(C(=O)Nc2cccc3ccccc23)sc2nc3c(cc12)C(=O)CCC3
Result block: True

Query block: Status in this test for COc1ccc(-c2nc3sc(-c4ccccc4)c(-c4ccccc4)n3c2/C=C/C(=O)c2ccccn2)cc1 ?
Result block: False

Query block: Recorded test call requested for COC(=O)C(=C\c1ccc2c(c1)OCO2)/C(=C/c1ccc2c(c1)OCO2)C(=O)OC
Result block: False

Query block: Hello, I am checking results. What call was entered for CC/C(=C(/c1ccc(OCCN(C)C)cc1)c1ccc(OC(=O)CCCCCCCCC(=O)c2c(C)[nH]c(/C=C3\N=C(c4ccc[nH]4)C=C3OC)c2C)cc1)c1ccccc1 ?
Result block: False
